# Tested on: S. epidermidis KCTC1917
# test_protocol: Ultrasensitive radial diffusion assay (URDA), MEC
# Format: cell-based, Staphylococcus epidermidis
# condition: S. epidermidis KCTC1917, Gram +, pH 6.6, 37 °C, triplicate, averaged
Positions of bridges follow the written chain, without caps; N, C: chain ends. Residues, ends and D or L forms follow the SMILES beside them.
readout_type: Minimal Effective Concentration

q: Return the recorded Minimal Effective Concentration value; entry: CC(C)C[C@@H]1NC(=O)[C@H](CO)NC(=O)CNC(=O)[C@H](C)NC(=O)[C@@H](N)CSSC[C@@H](C(=O)O)NC(=O)[C@H]([C@@H](C)O)NC(=O)[C@H](CC(C)C)NC(=O)[C@H](CCCNC(=N)N)NC1=O [Analog A0] (H-CAGSLRLTC-OH; disulfide 1-9)
a: >100.0 µg/mL

q: Return the recorded Minimal Effective Concentration value; entry: CC(C)C[C@@H]1NC(=O)[C@H](CCCNC(=N)N)NC(=O)[C@H](CC(C)C)NC(=O)[C@H](CCCNC(=N)N)NC(=O)[C@H](Cc2c[nH]c3ccccc23)NC(=O)[C@H](CCCNC(=N)N)NC(=O)[C@@H](N)CSSC[C@@H](C(=O)O)NC(=O)[C@H](CCCNC(=N)N)NC1=O [Analog A2] (H-CRWRLRLRC-OH; disulfide 1-9)
a: 24.0 µg/mL

q: Return the recorded Minimal Effective Concentration value; entry: CC(=O)N[C@H]1CSSC[C@@H](C(N)=O)NC(=O)[C@H](CCCNC(=N)N)NC(=O)[C@H](CC(C)C)NC(=O)[C@H](CCCNC(=N)N)NC(=O)[C@H](CCCNC(=N)N)NC(=O)[C@H](Cc2c[nH]c3ccccc23)NC(=O)CNC(=O)[C@H](C)NC1=O [Analog A1] (Ac-CAGWRRLRC-NH2; disulfide 1-9)
a: >100.0 µg/mL

Where these numbers come from: paper PMC8400246
